# Tested on: M. tuberculosis growth, meropenem IC50 shift with compound
# Method Notes: confirmation, meropenem IC50 shift (AID 485340);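 also: growth read after one week of culture plus overnight Alamar Blue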
# Measurement Conditions: compound dose (near its own IC50) 0.15 µM
The source made the active and inactive calls. No rule for the calls is given here.
Parameter Measured: IC50

N/C(=N\c1nc2ccccc2o1)NC(=O)c1ccccc1Br
7.58 µM (inactive)
CCOc1ccc2c(c1)c(C(C)=O)c(C)n2-c1ccccc1
3.86 µM (inactive)
Cn1c(/C=N/c2nc3ccccc3[nH]2)nc2ccccc21
6.15 µM (inactive)

# batch: return IC50 for each of the 2 molecules below
1. O=C(Nc1ccccc1)Nc1csc2ccccc12
2. CCCN1C(=O)S/C(=C/c2ccc(N3CCOCC3)o2)C1=O

Outgoing:
1. 4.85 µM (inactive)
2. 5.45 µM (inactive)

* * *

# Tested on: M. tuberculosis growth, meropenem IC50 shift with compound
# Method Notes: confirmation, meropenem IC50 shift (AID 485340);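 also: growth read after one week of culture plus overnight Alamar Blue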
# Measurement Conditions: compound dose (near its own IC50) 9.38 µM
Calls of active or inactive are those of the source. How the calls were made is not given here.
Returns: one label drawn from active, inactive

See these solved cases before continuing.
Cc1cc(C)n(-c2nc3ccccc3c(=O)n2OCC(=O)N(C)C)n1
inactive
CN(C)c1ccc(/C=C/c2nc3ccccc3s2)cc1
inactive
COc1cc(/C(C)=N\NC(N)=S)cc(OC)c1OC
inactive

Incoming: What did the test return for `O=C(Cc1ccccc1Cl)Nc1nc2ccccc2[nH]1` ?
Outgoing: active

Incoming: Now consider `CSc1nc(-c2ccc(Cl)cc2)nn1S(=O)(=O)c1ccccc1` and answer again.
Outgoing: inactive

Incoming: Now consider `C/C(=N\NC(N)=S)c1ccc(-n2ccnc2)cc1` and answer again.
Outgoing: inactive

* * *

I'd be grateful if you could share measured pIC50 for these entries.
# System: M. tuberculosis growth, meropenem IC50 shift with compound
# Method Notes: confirmation, meropenem IC50 shift (AID 485340);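 also: growth read after one week of culture plus overnight Alamar Blue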
# Measurement Conditions: compound alone IC50 vs Mtb; compound dose (near its own IC50) 9.38 µM
Answers are plain numbers, as −log10 of the molar value.

Below, each entry is followed by its recorded pIC50 result.
O=C(CCN1c2ccccc2Sc2ccccc21)Oc1ccccc1
5.07
CCc1ccc(NC(=O)c2c(Cl)nc(C)c(Cl)c2C)cc1
5.15
N=C1C(c2nc3ccccc3[nH]2)=C(O)CN1c1ccc(F)cc1
5.11

# batch: return pIC50 for each of the 7 molecules below
1. CSc1ncnc2c1ccn2CC(=O)Nc1ccc(C)c(C)c1
2. Fc1ccc(-c2csc(NC(=S)Nc3ccccc3)n2)cc1
3. CC(C)(C)c1ccc(C(=O)Oc2ccc3c(c2)OCC3=O)cc1
4. C/C(=N\NC(N)=S)c1ccc(-n2ccnc2)cc1
5. CSc1nc(-c2ccc(Cl)cc2)nn1S(=O)(=O)c1ccccc1
6. Cc1cc(/C=N/NC(=O)CC#N)c(C)n1-c1ccc([N+](=O)[O-])cc1
7. CCOC(=O)Cn1c(=NC(=O)C2CC2)sc2c(C)cc(C)cc21

Outgoing:
1. 5.07
2. 5.12
3. 5.06
4. 5.18
5. 5.01
6. 4.99
7. 5.01

* * *

# Test system: M. tuberculosis growth, meropenem IC50 shift with compound
# Method Notes: confirmation, meropenem IC50 shift (AID 485340);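 also: growth read after one week of culture plus overnight Alamar Blue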
# Measurement Conditions: compound dose (near its own IC50) 9.38 µM
Calls of active or inactive are those of the source. No rule for the calls is given here.
Returns: one label drawn from active, inactive

See these solved cases before continuing.
CC(C)(C)c1ccc(C(=O)Oc2ccc3c(c2)OCC3=O)cc1
inactive
COc1cccc(-c2ccc(-c3noc(-c4ccccc4F)n3)c(OC)n2)c1
inactive
COC(=O)c1c(-c2ccc(OC)cc2)oc2ccc(-c3cc(OC)c(OC)c(OC)c3)cc12
inactive
CC(=O)Nc1cccc(/C(C)=N/NC(N)=S)c1
inactive
N#Cc1c(-c2cccs2)cc(-c2ccccn2)nc1N
active

Incoming: What did the test return for `O=C(CCN1c2ccccc2Sc2ccccc21)Oc1ccccc1` ?
Outgoing: inactive

Incoming: Now consider `CCc1ccc(NC(=O)c2c(Cl)nc(C)c(Cl)c2C)cc1` and answer again.
Outgoing: inactive

Incoming: Now consider `Cc1cc(/C=N/NC(=O)CC#N)c(C)n1-c1ccc([N+](=O)[O-])cc1` and answer again.
Outgoing: inactive

Incoming: Now consider `COc1ccc(Cl)cc1NC(=O)C/C(C)=N/NC(=O)CC#N` and answer again.
Outgoing: inactive

Incoming: Now consider `C[C@H](NC(=O)c1[nH]cnc1C(=O)Nc1ccc(Cl)cc1)C(=O)OC(C)(C)C` and answer again.
Outgoing: inactive

* * *

I'd be grateful if you could share measured pIC50 for these entries.
# System: M. tuberculosis growth, meropenem IC50 shift with compound
# Method Notes: confirmation, meropenem IC50 shift (AID 485340);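 also: growth read after one week of culture plus overnight Alamar Blue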
# Measurement Conditions: compound alone IC50 vs Mtb; compound dose (near its own IC50) 9.38 µM
Give bare numbers, as −log10 of the molar value.

CN(C)c1ccc(/C=C/c2nc3ccccc3s2)cc1
5.05
O=C(Cc1ccccc1Cl)Nc1nc2ccccc2[nH]1
5.03

# batch: return pIC50 for each of the 2 molecules below
1. O=C(CC12CC3CC(CC(C3)C1)C2)NCc1ccc(F)cc1
2. Cc1ccc(-c2nc3[nH]c(=O)cc(NC(=O)C(C)C)n3n2)cc1

Outgoing:
[5.13, 5.13]

* * *

I'd be grateful if you could share measured IC50 for these entries.
# Tested on: M. tuberculosis growth, meropenem IC50 shift with compound
# Method Notes: confirmation, meropenem IC50 shift (AID 485340);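 also: growth read after one week of culture plus overnight Alamar Blue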
# Measurement Conditions: compound dose (near its own IC50) 9.38 µM
Activity calls are given as the source filed them. How the calls were made is not given here.

Below, each entry is followed by its recorded IC50 result.
CSc1ncnc2c1ccn2CC(=O)Nc1ccc(C)c(C)c1
7.31 µM (inactive)
Cc1ccc(-c2nc3[nH]c(=O)cc(NC(=O)C(C)C)n3n2)cc1
3.83 µM (inactive)
O=C(CC12CC3CC(CC(C3)C1)C2)NCc1ccc(F)cc1
7.53 µM (inactive)
CO/N=C(\C(=O)N[C@@H]1C(=O)N2C(C(=O)O)=C(COC(C)=O)CS[C@H]12)c1csc(N)n1 (stereo in doubt)
1.01 µM (inactive)

Now for the compound whose IC50 we want.
Incoming: Suppose we examine the compound `O=C(CCCCCN1C(=O)c2cccc([N+](=O)[O-])c2C1=O)Nc1ccccc1F` ; what IC50 value has been reported?
Outgoing: 1.08 µM (inactive)

* * *

# System: M. tuberculosis growth, meropenem IC50 shift with compound
# Method Notes: confirmation, meropenem IC50 shift (AID 485340);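 also: growth read after one week of culture plus overnight Alamar Blue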
# Measurement Conditions: compound alone IC50 vs Mtb; compound dose (near its own IC50) 9.38 µM
I'd be grateful if you could share measured pIC50 for these entries.
Answers are plain numbers, as −log10 of the molar value.

O=C(CCCCCN1C(=O)c2cccc([N+](=O)[O-])c2C1=O)Nc1ccccc1F
4.99
COc1cccc(-c2ccc(-c3noc(-c4ccccc4F)n3)c(OC)n2)c1
5.02
CC(=O)Nc1cccc(/C(C)=N/NC(N)=S)c1
5.10
COc1cc(/C(C)=N\NC(N)=S)cc(OC)c1OC
4.99
Cc1cc(C)n(-c2nc3ccccc3c(=O)n2OCC(=O)N(C)C)n1
5.11

# batch: return pIC50 for each of the 2 compounds below
1. N#Cc1c(-c2cccs2)cc(-c2ccccn2)nc1N
2. CO/N=C(\C(=O)N[C@@H]1C(=O)N2C(C(=O)O)=C(COC(C)=O)CS[C@H]12)c1csc(N)n1 (stereo in doubt)

Outgoing:
1. 5.16
2. 4.99

Incoming: Suppose we examine the compound `COc1ccc(Cl)cc1NC(=O)C/C(C)=N/NC(=O)CC#N` ; what pIC50 value has been reported?
Outgoing: 5.10

* * *

# Test system: M. tuberculosis growth, meropenem IC50 shift with compound
# Method Notes: confirmation, meropenem IC50 shift (AID 485340);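 also: growth read after one week of culture plus overnight Alamar Blue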
# Measurement Conditions: compound dose (near its own IC50) 9.38 µM
Calls of active or inactive are those of the source. No rule for the calls is given here.
Parameter Measured: IC50

Below, each entry is followed by its recorded IC50 result.
N=C1C(c2nc3ccccc3[nH]2)=C(O)CN1c1ccc(F)cc1
4.04 µM (inactive)
Fc1ccc(-c2csc(NC(=S)Nc3ccccc3)n2)cc1
2.74 µM (inactive)

Now for the compound whose IC50 we want.
Incoming: Request - read-out IC50 | tested on M. tuberculosis growth, meropenem IC50 shift with compound | compound `CCOC(=O)Cn1c(=NC(=O)C2CC2)sc2c(C)cc(C)cc21`
Outgoing: 3.54 µM (inactive)
